Value source: ChEMBL document CHEMBL4715835

Listed here are molecules together with their documented IC50 at 48 h.
Experiment: Toxicity in human NCI-H727 cells assessed as reduction in cell number after 48 hrs by Hoechst 33342 staining based assay

For this molecule ( "CCCCCCCC/C=C\CCCCCCC[C@@H](O)C[C@@H]1C=CCCN1C" ), measured IC50 at 48 h is 9 µM

For this molecule ( "COc1cccc2c1C(=O)c1c(O)c3c(c(O)c1C2=O)C[C@@](O)(C(=O)CO)C[C@@H]3O[C@H]1C[C@H](N)[C@H](O)[C@H](C)O1" ), measured IC50 at 48 h is 0.66 µM

For this molecule ( "CCCCCCCCCCCCCCCCC[C@H](O)C[C@@H]1C=CCCN1C" ), measured IC50 at 48 h is > 25 µM

For this molecule ( "CCCCCCCCCCCCCCCCC[C@H](C[C@@H]1C=CCCN1C)OC(C)=O" ), measured IC50 at 48 h is > 25 µM

For this molecule ( "CCCCCCCC/C=C\CCCCCCC[C@H](O)C[C@@H]1C=CCCN1C" ), measured IC50 at 48 h is > 25 µM

For this molecule ( "CCCCCCCCCCCCCCCCCCC[C@H](O)C[C@@H]1C=CCCN1C" ), measured IC50 at 48 h is > 25 µM

---

Experiment: Toxicity in human HCT-116 cells assessed as reduction in cell number after 48 hrs by Hoechst 33342 staining based assay
Measure: IC50 at 48 h (µM)
Respond with the bare value in µM.

Some entries whose results are on file:
# Mol Smiles, Unit Info, IC50 at 48 h
records = [
    ("CCCCCCCCCCCCCCCCC[C@H](C[C@@H]1C=CCCN1C)OC(C)=O", "µM", 16),
    ("CCCCCCCC/C=C\\CCCCCCC[C@H](C[C@@H]1C=CCCN1C)OC(C)=O", "µM", 9),
    ("CCCCCCCCCCCCCCCCC[C@@H](C[C@@H]1C=CCCN1C)OC(C)=O", "µM", 24),
    ("CCCCCCCC/C=C\\CCCCCCC[C@@H](O)C[C@@H]1C=CCCN1C", "µM", 10),
    ("CCCCCCCC/C=C\\CCCCCCC[C@H](O)C[C@@H]1C=CCCN1C", "µM", 15),
]

--- query ---
For this compound ( "COc1cccc2c1C(=O)c1c(O)c3c(c(O)c1C2=O)C[C@@](O)(C(=O)CO)C[C@@H]3O[C@H]1C[C@H](N)[C@H](O)[C@H](C)O1" ), measured IC50 at 48 h is 0.12

---

Listed here are compounds together with their documented IC50 at 48 h.
Assay: Toxicity in human NCI-H727 cells assessed as reduction in cell number after 48 hrs by Hoechst 33342 staining based assay

Some entries whose results are on file:
# Mol Smiles, IC50 at 48 h
rows = [
    ("CCCCCCCCCCCCCCCCC[C@@H](O)C[C@@H]1C=CCCN1C", "> 25 µM"),
    ("CCCCCCCCCCCCCCCCC[C@@H](C[C@@H]1C=CCCN1C)OC(C)=O", "> 25 µM"),
    ("CCCCCCCC/C=C\\CCCCCCC[C@H](C[C@@H]1C=CCCN1C)OC(C)=O", "19 µM"),
]

For this compound ( "CCCCCCCCCCCCCCCCCCC[C@H](C[C@@H]1C=CCCN1C)OC(C)=O" ), measured IC50 at 48 h is > 25 µM

For this compound ( "CCCCCCCCCCCCCCCCCCC[C@@H](O)C[C@@H]1C=CCCN1C" ), measured IC50 at 48 h is > 25 µM

---

Assay: Toxicity in human MCF7 cells assessed as reduction in cell number after 48 hrs by Hoechst 33342 staining based assay
Listed here are molecules together with their documented IC50 at 48 h.
Respond with the bare value in µM.

# Mol Smiles, IC50 at 48 h (µM)
records = [
    ("CCCCCCCC/C=C\\CCCCCCC[C@@H](O)C[C@@H]1C=CCCN1C", 10),
]

For this molecule ( "CCCCCCCCCCCCCCCCC[C@H](C[C@@H]1C=CCCN1C)OC(C)=O" ), measured IC50 at 48 h is 19

---

Assay: Toxicity in human PC-3 cells assessed as reduction in cell number after 48 hrs by Hoechst 33342 staining based assay
Measure: IC50 at 48 h (µM)
Respond with the bare value in µM.

# Mol Smiles, Unit Info, IC50 at 48 h
measured = [
    ("CCCCCCCC/C=C\\CCCCCCC[C@H](C[C@@H]1C=CCCN1C)OC(C)=O", "µM", 8),
    ("CCCCCCCC/C=C\\CCCCCCC[C@@H](O)C[C@@H]1C=CCCN1C", "µM", 7),
]

--- query ---
For this compound ( "CCCCCCCC/C=C\CCCCCCC[C@H](O)C[C@@H]1C=CCCN1C" ), measured IC50 at 48 h is 19

---

Listed here are compounds together with their documented mortality.
System: MDA-MB-435
Assay: Toxicity in human MDA-MB-435 cells assessed as mortality at 1 uM measured after 24 hrs by MTT assay relative to control
Type: cell-based
Details: mda-mb-435, 24 h
Respond with the bare value in %.

# Compound, Unit Info, Value
records = [
    ("CCCCCCCCCCCCCCCCCCCC(Cc1ccccn1)OC (stereo unspecified)", "%", 20),
    ("CCCCCCCCCCCCCCCCC[C@@H](C[C@@H]1C=CCCN1C)OC(C)=O", "%", 0),
    ("CCCCCCCCCCCCCCCCCCC[C@H](O)C[C@@H]1C=CCCN1C", "%", 30),
    ("CCCCCCCCCCCCCCCCC[C@H](O)C[C@@H]1C=CCCN1C", "%", 0),
    ("CCCCCCCC/C=C\\CCCCCCC[C@H](C[C@@H]1C=CCCN1C)OC(C)=O", "%", 0),
]

--- query ---
For this compound ( "CCCCCCCCCCCCCCCCCCC[C@H](C[C@@H]1C=CCCN1C)OC(C)=O" ), measured mortality is 0

---

Listed here are molecules together with their documented IC50 at 48 h.
Test: Toxicity in human skin fibroblasts assessed as reduction in cell number after 48 hrs by Hoechst 33342 staining based assay
Type: tissue-based, Fibroblast
Respond with the bare value in µM.

# Molecule, Unit Info, IC50 at 48 h
records = [
    ("CCCCCCCC/C=C\\CCCCCCC[C@H](O)C[C@@H]1C=CCCN1C", "µM", 25),
    ("CCCCCCCCCCCCCCCCC[C@@H](C[C@@H]1C=CCCN1C)OC(C)=O", "µM", 24),
    ("CCCCCCCCCCCCCCCCC[C@H](C[C@@H]1C=CCCN1C)OC(C)=O", "µM", 18),
    ("COc1cccc2c1C(=O)c1c(O)c3c(c(O)c1C2=O)C[C@@](O)(C(=O)CO)C[C@@H]3O[C@H]1C[C@H](N)[C@H](O)[C@H](C)O1 [DOXORUBICIN]", "µM", 0.03),
    ("CCCCCCCC/C=C\\CCCCCCC[C@H](C[C@@H]1C=CCCN1C)OC(C)=O", "µM", 13),
]

--- query ---
For this molecule ( "CCCCCCCC/C=C\CCCCCCC[C@@H](O)C[C@@H]1C=CCCN1C" ), measured IC50 at 48 h is 9

---

Test: Toxicity in human MDA-MB-231 cells assessed as reduction in cell number after 48 hrs by Hoechst 33342 staining based assay
Listed here are molecules together with their documented IC50 at 48 h.
Respond with the bare value in µM.

# Mol Smiles, IC50 at 48 h (µM)
rows = [
    ("CCCCCCCC/C=C\\CCCCCCC[C@H](C[C@@H]1C=CCCN1C)OC(C)=O", 10),
]

For this molecule ( "CCCCCCCCCCCCCCCCC[C@H](C[C@@H]1C=CCCN1C)OC(C)=O" ), measured IC50 at 48 h is 21

For this molecule ( "CCCCCCCC/C=C\CCCCCCC[C@@H](O)C[C@@H]1C=CCCN1C" ), measured IC50 at 48 h is 8

For this molecule ( "CCCCCCCCCCCCCCCCC[C@@H](C[C@@H]1C=CCCN1C)OC(C)=O" ), measured IC50 at 48 h is 22

For this molecule ( "CCCCCCCC/C=C\CCCCCCC[C@H](O)C[C@@H]1C=CCCN1C" ), measured IC50 at 48 h is 14

---

Assay: Toxicity in human MCF7 cells assessed as reduction in cell number after 48 hrs by Hoechst 33342 staining based assay
Measure: IC50 at 48 h (µM)
Respond with the bare value in µM.

# Mol Smiles, IC50 at 48 h, µM
measured = [
    ("CCCCCCCC/C=C\\CCCCCCC[C@H](C[C@@H]1C=CCCN1C)OC(C)=O", 15),
]

--- query ---
For this compound ( "CCCCCCCC/C=C\CCCCCCC[C@H](O)C[C@@H]1C=CCCN1C" ), measured IC50 at 48 h is 18
